Would you mind telling me the reported melting point of each entry?

Quick one: melting point of `COc1cc2c(=O)n(CCCN3CCOCC3)c3c(c2cc1OCCCBr)C(=O)c1cc2c(cc1-3)OCO2` ?
197 to 199 °C

For `Cl.NCCCCCCCCCCCn1c2c(c3ccccc3c1=O)C(=O)c1ccccc1-2` then?
125 to 129 °C

Also check `Cl.NCCCCCCCCCCCCn1c2c(c3ccccc3c1=O)C(=O)c1ccccc1-2`
175 to 178 °C

Another compound: `Cl.NCCCCCCCn1c2c(c3ccccc3c1=O)C(=O)c1ccccc1-2`
228 to 231 °C

Try the compound COC1C=c2c3c([nH]c(=O)c2=CC1(CCCN1CCOCC1)OC)-c1cc2c(cc1C3=O)OCO2 (centres unmarked)
290 to 292 °C

Now give it for COc1cc2c3c(n(CCCNCCC4COCCN4)c(=O)c2cc1OC)-c1cc2c(cc1C3=O)OCO2 (centres unmarked) too.
215 to 217 °C

Next compound: `Cl.NCCCCCCCCCn1c2c(c3ccccc3c1=O)C(=O)c1ccccc1-2`
204 to 207 °C

What do you have for `COc1cc2c(=O)n(CCCN3CCOCC3)c3c(c2cc1OCCCN)C(=O)c1cc2c(cc1-3)OCO2` ?
> 350 °C

From: patent US9796753B2
